ASSAY_TARGET: T1, fVIIa/TF (Homo sapiens, UniProt P08709)
T1 construct: Recombinant fVIIa was products of Novo-Nordisk (Denmark); purchased Novo-Nordisk (Denmark) for fVIIa; Protgen (Beijing, China) for sTF; Haematologic Technologies Inc for EGR-fXa
T1 sequence (P08709 61-212 limits assumed): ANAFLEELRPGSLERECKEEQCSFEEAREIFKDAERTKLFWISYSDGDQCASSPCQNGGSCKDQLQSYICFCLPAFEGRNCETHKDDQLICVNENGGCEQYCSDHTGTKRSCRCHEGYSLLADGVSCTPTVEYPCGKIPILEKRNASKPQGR
T1 sequence (P08709 213-466 limits assumed): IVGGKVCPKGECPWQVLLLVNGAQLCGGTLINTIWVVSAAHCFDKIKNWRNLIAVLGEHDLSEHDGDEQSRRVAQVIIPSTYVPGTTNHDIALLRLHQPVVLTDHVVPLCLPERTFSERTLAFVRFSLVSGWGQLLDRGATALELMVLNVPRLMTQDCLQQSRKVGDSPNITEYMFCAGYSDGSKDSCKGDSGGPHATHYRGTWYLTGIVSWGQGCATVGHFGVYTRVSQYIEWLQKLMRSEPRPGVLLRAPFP
T1 sequence (P13726 33-251 partner limits assumed): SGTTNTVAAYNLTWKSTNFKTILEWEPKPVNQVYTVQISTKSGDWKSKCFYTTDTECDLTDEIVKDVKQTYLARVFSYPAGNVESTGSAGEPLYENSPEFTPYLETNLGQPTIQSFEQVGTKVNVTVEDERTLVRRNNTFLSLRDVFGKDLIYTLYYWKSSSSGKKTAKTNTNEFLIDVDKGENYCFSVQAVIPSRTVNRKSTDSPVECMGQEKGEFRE
PROTOCOL: Chromogenic assay, fVIIa/TF
Type: biochemical
EXPERIMENTAL_CONTEXT: 100 nM

>  <MOLECULE>
NAPTin-3 (protein, Sequence derived from Ancylostoma caninum or Synthetic) NPSCGENERHDECSRKECDPKCKYDGTEEKDDEKPVVCLTRVCYGDCICRDGFLRNKNGACVKAEDCELDNM

>  <effect on fVIIa/TF activity (in words)>
without affecting

$$$$
>  <MOLECULE>
NAPTin-7 (protein, Sequence derived from Ancylostoma caninum or Synthetic) NPSCGENERHDECSRKECDPKCKYDGTEEKDDEKPVVCLTRVCYGDCICRDGFLRNKNGACVKAEDC

>  <effect on fVIIa/TF activity (in words)>
without affecting

$$$$
